Exercise: for every item that follows, state its recorded pIC50.
- STUDY_TARGET: Androgen receptor (Homo sapiens, UniProt P10275)
- Sequence (P10275 whole entry): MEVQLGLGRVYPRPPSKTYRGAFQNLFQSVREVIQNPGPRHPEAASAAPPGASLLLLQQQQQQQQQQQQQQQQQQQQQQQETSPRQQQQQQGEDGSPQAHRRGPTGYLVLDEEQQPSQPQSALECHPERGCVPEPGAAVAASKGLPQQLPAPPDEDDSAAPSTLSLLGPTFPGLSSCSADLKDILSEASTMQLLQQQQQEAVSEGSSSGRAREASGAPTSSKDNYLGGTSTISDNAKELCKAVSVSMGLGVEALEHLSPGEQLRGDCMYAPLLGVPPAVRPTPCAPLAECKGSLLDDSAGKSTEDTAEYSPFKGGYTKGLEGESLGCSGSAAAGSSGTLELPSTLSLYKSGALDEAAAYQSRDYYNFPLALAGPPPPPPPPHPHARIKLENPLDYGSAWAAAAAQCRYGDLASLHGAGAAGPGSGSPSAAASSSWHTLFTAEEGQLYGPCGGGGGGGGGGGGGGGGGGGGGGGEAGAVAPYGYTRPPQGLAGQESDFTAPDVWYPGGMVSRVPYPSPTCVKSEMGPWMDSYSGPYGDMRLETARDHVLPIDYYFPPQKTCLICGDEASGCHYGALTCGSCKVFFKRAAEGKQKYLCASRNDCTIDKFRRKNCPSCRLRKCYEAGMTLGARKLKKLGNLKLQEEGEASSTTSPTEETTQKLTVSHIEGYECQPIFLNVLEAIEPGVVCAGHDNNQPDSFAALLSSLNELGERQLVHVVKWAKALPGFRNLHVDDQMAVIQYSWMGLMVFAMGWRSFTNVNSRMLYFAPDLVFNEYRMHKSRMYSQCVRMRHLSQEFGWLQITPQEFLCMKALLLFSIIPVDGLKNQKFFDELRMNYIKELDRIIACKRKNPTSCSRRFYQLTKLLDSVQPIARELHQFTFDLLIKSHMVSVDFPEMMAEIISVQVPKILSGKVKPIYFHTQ
- ASSAY_SUMMARY: Antagonist activity at human androgen receptor transfected in African green monkey CV-1 cells cotransfected with genetic response element-luciferase reporter gene assessed as inhibition of 5alpha-dihydro-11-keto testosterone induced response incubated for 22 hrs by luciferase detection reagent based assay
Give bare numbers, as −log10 of the molar value.

INPUT_SMILES: Cc1ncccc1Nc1ccc2c(c1)CCC1=C3C[C@@H](O)C[C@]3(C)CC[C@]12C
VALUE_MEASURED: 6.40

Given the compound `Cc1ncccc1Nc1ccc2c(c1)CCC1=C3C[C@@H](O)C[C@]3(C)CC[C@]12Cc1ccccc1` , what is its reported pIC50?
6.76
